Reported protein stability index values are given for each entry in this list.
B1: KRT18 (parent)
chain: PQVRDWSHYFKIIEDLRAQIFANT

# Variants of: B1
# procedure text: protein stability index of a GFP-peptide fusion (GPS, HEK-293T) (PSI 1-6); higher = more stable;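 also: lentivirally expressed fusions sorted by FACS into six bins by GFP to DsRed ratio, PSI derived from sequencing read proportions per bin multiplied by bin number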
# protocol conditions: c terminus: a fixed tail appended
// no unit string in output, number only

Example cases with answers are listed next.
mutant code | protein stability index
I12R | 2.55
Q19H | 2.09
S7W | 1.95

State the recorded protein stability index for this entry: `N23P`
1.91

Same question, `Q2G` this time
2.29
